method: Solubility study in biological media (FaSSIF, FeSSIF, SGF, water) at 37° C.
Assay type: physicochemical
condition_description: simulated gastric fluid, thermodynamic from solid; SGF, pH 1.24; 0.5 h; 37° C.
measured_metric: solubility at 0.5 h (µg/mL)
API: value field is a number in µg/mL; no unit string.

Please list solubility at 0.5 h recorded for the compound N#C[C@@]1(c2ccc3c(N)ncnn23)O[C@H](COC(=O)C2CCCCC2)[C@@H](O)[C@H]1O [ATV-014 free base crystalline form I] 2480

###

method: Solubility study in biological media (FaSSIF, FeSSIF, SGF, water) at 37° C.
Type: physicochemical
condition_description: thermodynamic from solid; FeSSIF, pH 4.95; 24 h; 37° C.
measured_metric: solubility at 24 h (mg/mL)
API: value field is a number in mg/mL; no unit string.

Please list solubility at 24 h recorded for the molecule N#C[C@@]1(c2ccc3c(N)ncnn23)O[C@H](COC(=O)C2CCCCC2)[C@@H](O)[C@H]1O [ATV-014 free base crystalline form I] 0.02

###

method: Solubility study in biological media (FaSSIF, FeSSIF, SGF, water) at 37° C.
Type: physicochemical
condition_description: thermodynamic from solid; water, pH 5.53; 24 h; 37° C.
measured_metric: solubility at 24 h (µg/mL)
API: value field is a number in µg/mL; no unit string.

Please list solubility at 24 h recorded for the molecule N#C[C@@]1(c2ccc3c(N)ncnn23)O[C@H](COC(=O)C2CCCCC2)[C@@H](O)[C@H]1O [ATV-014 free base crystalline form I] 5

###

method: Solubility study in biological media (FaSSIF, FeSSIF, SGF, water) at 37° C.
Assay type: physicochemical
condition_description: simulated gastric fluid, thermodynamic from solid; SGF, pH 1.24; 2 h; 37° C.
measured_metric: solubility at 2 h
Please answer using the number first and the unit second.

Please list solubility at 2 h recorded for the compound N#C[C@@]1(c2ccc3c(N)ncnn23)O[C@H](COC(=O)C2CCCCC2)[C@@H](O)[C@H]1O [ATV-014 free base crystalline form I] 2560 µg/mL

###

method: Solubility study in biological media (FaSSIF, FeSSIF, SGF, water) at 37° C.
Type: physicochemical
condition_description: thermodynamic from solid; FeSSIF, pH 4.95; 2 h; 37° C.
measured_metric: solubility at 2 h

Please list solubility at 2 h recorded for the molecule N#C[C@@]1(c2ccc3c(N)ncnn23)O[C@H](COC(=O)C2CCCCC2)[C@@H](O)[C@H]1O [ATV-014 free base crystalline form I] 19 µg/mL

###

method: Solubility study in biological media (FaSSIF, FeSSIF, SGF, water) at 37° C.
Assay type: physicochemical
condition_description: simulated gastric fluid, thermodynamic from solid; SGF, pH 1.24; 24 h; 37° C.
measured_metric: solubility at 24 h (mg/mL)
API: value field is a number in mg/mL; no unit string.

Please list solubility at 24 h recorded for the compound N#C[C@@]1(c2ccc3c(N)ncnn23)O[C@H](COC(=O)C2CCCCC2)[C@@H](O)[C@H]1O [ATV-014 free base crystalline form I] 2.86

###

method: Solubility study in biological media (FaSSIF, FeSSIF, SGF, water) at 37° C.
Format: physicochemical
condition_description: thermodynamic from solid; water, pH 5.53; 0.5 h; 37° C.
measured_metric: solubility at 0.5 h (µg/mL)
API: value field is a number in µg/mL; no unit string.

Please list solubility at 0.5 h recorded for the molecule N#C[C@@]1(c2ccc3c(N)ncnn23)O[C@H](COC(=O)C2CCCCC2)[C@@H](O)[C@H]1O [ATV-014 free base crystalline form I] 5
